Molecular target: UniProtKB Q96RI1
Sequence (Q96RI1 whole entry): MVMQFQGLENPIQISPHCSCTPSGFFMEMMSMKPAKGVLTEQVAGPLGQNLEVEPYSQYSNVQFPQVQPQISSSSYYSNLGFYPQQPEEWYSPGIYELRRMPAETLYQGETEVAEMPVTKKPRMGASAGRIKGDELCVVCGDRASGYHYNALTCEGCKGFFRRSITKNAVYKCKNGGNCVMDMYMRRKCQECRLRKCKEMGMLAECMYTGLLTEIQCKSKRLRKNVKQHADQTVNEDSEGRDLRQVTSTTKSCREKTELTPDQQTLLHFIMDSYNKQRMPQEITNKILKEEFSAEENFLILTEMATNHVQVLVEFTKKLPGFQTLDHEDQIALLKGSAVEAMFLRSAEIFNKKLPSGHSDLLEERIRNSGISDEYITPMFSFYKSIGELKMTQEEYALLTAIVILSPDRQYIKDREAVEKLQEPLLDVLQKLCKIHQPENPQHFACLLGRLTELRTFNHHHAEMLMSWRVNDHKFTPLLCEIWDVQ
Assay: Agonist activity at GST-tagged FXR LBD (187 to 472 residues) (unknown origin) assessed as FXR interaction with b-CPSSHSSLTERHKILHRLLQEGSPS-COOH by FRET assay
# pEC50 per entry
// pEC50 is dimensionless: -log10 of concentration (M)

Q. Can you share its pEC50? I mean this molecule: O=C(O)c1cccc([C@H]2C[C@H](c3ccc(OCc4c(-c5c(Cl)cccc5Cl)noc4C4CC4)cc3Cl)C2)c1
A. 7.62

Q. Can you share its pEC50? I mean this molecule: O=C(O)c1cccc(N2CC(O)(c3ccc(OCc4c(-c5c(Cl)cccc5Cl)noc4C4CC4)cc3Cl)C2)c1
A. 7.27

Q. Can you share its pEC50? I mean this molecule: Cn1nc(C(=O)O)c2ccc([C@H]3C[C@](O)(c4ccc(OCc5c(-c6c(Cl)cccc6Cl)noc5C5CC5)cc4Cl)C3)cc21
A. 7.72

Q. Can you share its pEC50? I mean this molecule: CO[C@]1(c2ccc(OCc3c(-c4c(Cl)cccc4Cl)noc3C3CC3)cc2Cl)C[C@H](c2cccc(C(=O)O)c2)C1
A. 7.10

Q. Can you share its pEC50? I mean this molecule: O=C(O)c1cccc([C@@H]2C[C@H]2c2ccc(OCc3c(-c4c(Cl)cccc4Cl)noc3C3CC3)cc2Cl)c1
A. 7.74

Recorded values, source ChEMBL document CHEMBL3822410.
